Test: Volume of distribution at steady state in Sprague-Dawley rat at 2 mg/kg, iv and 10 mg/kg, po
Type: ADME, organism-based
Settings: in vivo, read-out: Vdss
measured_quantity: Vd (L/kg)
Write the number in L/kg without appending the unit.

# Vd of CC[C@H]1OC(=O)[C@H](C)[C@@H](O[C@H]2C[C@@](C)(OC)[C@@H](O)[C@H](C)O2)[C@H](C)[C@@H](O[C@@H]2O[C@H](C)C[C@H]3[C@H]2O/C(=N\C(C)C)N3C)[C@](C)(O)C[C@@H](C)CN(C)[C@H](C)[C@@H](O)[C@]1(C)O = 8.6

----------
Assay: Antiinflammatory activity in mouse splenocytes assessed as inhibition of LPS-induced IL-6 production at 50 uM preincubated for 2 hrs prior to LPS challenge by sandwich ELISA
Format: functional
Conditions: Splenocyte
measured_quantity: inhibition at 50 µM

[
  {
    "query_smiles": "CC/N=C1\\O[C@H]2[C@H](O[C@@H]3[C@@H](C)[C@H](O[C@H]4C[C@@](C)(OC)[C@@H](O)[C@H](C)O4)[C@@H](C)C(=O)O[C@H](CC)[C@@](C)(O)[C@H](O)[C@@H](C)N(C)C[C@H](C)C[C@@]3(C)O)O[C@H](C)C[C@@H]2N1C",
    "observed": "99%"
  }
]

# inhibition at 50 µM of CC/N=C1\O[C@H]2[C@H](O[C@@H]3[C@@H](C)[C@H](O[C@H]4C[C@@](C)(OC)[C@@H](O)[C@H](C)O4)[C@@H](C)C(=O)O[C@H](CC)[C@@](C)(O)[C@H](O)[C@@H](C)C(=O)[C@H](C)C[C@@]3(C)OC)O[C@H](C)C[C@@H]2N1C = 73%

# inhibition at 50 µM of CC[C@H]1OC(=O)[C@H](C)[C@@H](O[C@H]2C[C@@](C)(OC)[C@@H](O)[C@H](C)O2)[C@H](C)[C@@H](O[C@@H]2O[C@H](C)C[C@H]3[C@H]2O/C(=N\C(C)C)N3C)[C@](C)(O)C[C@@H](C)C(=O)[C@H](C)[C@@H](O)[C@]1(C)O = 94%

# inhibition at 50 µM of CC[C@H]1OC(=O)[C@H](C)[C@@H](O[C@H]2C[C@@](C)(OC)[C@@H](O)[C@H](C)O2)[C@H](C)[C@@H](O[C@@H]2O[C@H](C)C[C@H]3[C@H]2O/C(=N\CCCN(C)C)N3C)[C@](C)(OC)C[C@@H](C)C(=O)[C@H](C)[C@@H](O)[C@]1(C)O = 74%

----------
Test: Half life in Sprague-Dawley rat at 2 mg/kg, iv and 10 mg/kg, po
Assay type: ADME, organism-based
Details: in vivo
measured_quantity: half-life (h)
Write the number in h without appending the unit.

# half-life of CC[C@H]1OC(=O)[C@H](C)[C@@H](O[C@H]2C[C@@](C)(OC)[C@@H](O)[C@H](C)O2)[C@H](C)[C@@H](O[C@@H]2O[C@H](C)C[C@H]3[C@H]2O/C(=N\C(C)C)N3C)[C@](C)(O)C[C@@H](C)CN(C)[C@H](C)[C@@H](O)[C@]1(C)O = 20.3

----------
Test: Cmax in cystic fibrosis patient blood at 500 mg
Type: ADME, organism-based
Set-up: dose 500 mg
Conditions: human, whole blood
measured_quantity: Cmax (ng/mL)
Write the number in ng/mL without appending the unit.

# Cmax of CC[C@H]1OC(=O)[C@H](C)[C@@H](O[C@H]2C[C@@](C)(OC)[C@@H](O)[C@H](C)O2)[C@H](C)[C@@H](O[C@@H]2O[C@H](C)C[C@H](N(C)C)[C@H]2O)[C@](C)(O)C[C@@H](C)CN(C)[C@H](C)[C@@H](O)[C@]1(C)O = 2010

----------
pIC50 tested on UniProt P08684: recorded values
Sequence (P08684 whole entry): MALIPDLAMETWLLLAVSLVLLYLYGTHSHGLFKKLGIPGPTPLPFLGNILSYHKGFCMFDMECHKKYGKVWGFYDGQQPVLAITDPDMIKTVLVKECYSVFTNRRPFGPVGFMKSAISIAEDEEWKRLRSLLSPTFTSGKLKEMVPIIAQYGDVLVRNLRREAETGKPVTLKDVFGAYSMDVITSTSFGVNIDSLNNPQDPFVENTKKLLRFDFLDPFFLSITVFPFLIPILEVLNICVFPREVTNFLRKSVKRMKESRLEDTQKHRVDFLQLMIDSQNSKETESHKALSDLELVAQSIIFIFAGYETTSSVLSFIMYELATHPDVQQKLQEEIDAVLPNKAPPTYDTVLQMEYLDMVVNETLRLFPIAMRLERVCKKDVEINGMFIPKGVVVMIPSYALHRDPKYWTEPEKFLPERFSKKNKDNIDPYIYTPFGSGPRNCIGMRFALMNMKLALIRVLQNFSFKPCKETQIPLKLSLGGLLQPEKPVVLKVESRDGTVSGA
The meaning of pIC50 here: minus log10 of the concentration in molar units.

Examples with answers:
[
  {
    "query_smiles": "CC[C@H]1OC(=O)[C@H](C)[C@@H](O[C@H]2C[C@@](C)(OC)[C@@H](O)[C@H](C)O2)[C@H](C)[C@@H](O[C@@H]2O[C@H](C)C[C@H]3[C@H]2O/C(=N\\CCCN(C)C)N3C)[C@](C)(OC)C[C@@H](C)C(=O)[C@H](C)[C@@H](O)[C@]1(C)O",
    "study_system": "UniProt P08684",
    "measured_quantity": "pIC50",
    "observed": 6.15
  },
  {
    "query_smiles": "CC[C@H]1OC(=O)[C@H](C)[C@@H](O[C@H]2C[C@@](C)(OC)[C@@H](O)[C@H](C)O2)[C@H](C)[C@@H](O[C@@H]2O[C@H](C)C[C@H]3[C@H]2O/C(=N\\CCCSC)N3C)[C@](C)(OC)C[C@@H](C)C(=O)N[C@H](C)[C@@H](O)[C@]1(C)O",
    "study_system": "UniProt P08684",
    "measured_quantity": "pIC50",
    "observed": 5.88
  }
]

Measured on UniProt P08684, CC[C@H]1OC(=O)[C@H](C)[C@@H](O[C@H]2C[C@@](C)(OC)[C@@H](O)[C@H](C)O2)[C@H](C)[C@@H](O[C@@H]2O[C@H](C)C[C@H]3[C@H]2O/C(=N/c2ccc(OC)cc2)N3C)[C@](C)(OC)C[C@@H](C)C(=O)N[C@H](C)[C@@H](O)[C@]1(C)O has a documented pIC50 of 6.15

Measured on UniProt P08684, CC[C@H]1OC(=O)[C@H](C)[C@@H](O[C@H]2C[C@@](C)(OC)[C@@H](O)[C@H](C)O2)[C@H](C)[C@@H](O[C@@H]2O[C@H](C)C[C@H]3[C@H]2O/C(=N\C(C)C)N3C)[C@](C)(O)C[C@@H](C)CN(C)[C@H](C)[C@@H](O)[C@]1(C)O has a documented pIC50 of 5.11

----------
Assay: Oral bioavailability in BALB/cJ mouse at 25 mg/kg
Format: ADME, organism-based
Details: in vivo
measured_quantity: bioavailability
Report field: quantity (unit follows the number).

# bioavailability of CC[C@H]1OC(=O)[C@H](C)[C@@H](O[C@H]2C[C@@](C)(OC)[C@@H](O)[C@H](C)O2)[C@H](C)[C@@H](O[C@@H]2O[C@H](C)C[C@H]3[C@H]2O/C(=N\C(C)C)N3C)[C@](C)(O)C[C@@H](C)CN(C)[C@H](C)[C@@H](O)[C@]1(C)O = 62%

----------
Measured inhibition at 50 µM by item
Assay: Antiinflammatory activity in mouse splenocytes assessed as inhibition of LPS-induced IL-6 production at 50 uM preincubated for 2 hrs prior to LPS challenge by sandwich ELISA
Type: functional
Settings: Splenocyte
Write the number in % without appending the unit.

Examples with answers:
[
  {
    "compound": "CC[C@H]1OC(=O)[C@H](C)[C@@H](O[C@H]2C[C@@](C)(OC)[C@@H](O)[C@H](C)O2)[C@H](C)[C@@H](O[C@@H]2O[C@H](C)C[C@H]3[C@H]2O/C(=N\\CCCSC)N3C)[C@](C)(OC)C[C@@H](C)C(=O)N[C@H](C)[C@@H](O)[C@]1(C)O",
    "measured_quantity": "inhibition at 50 µM",
    "observed": 67
  },
  {
    "compound": "CC[C@H]1OC(=O)[C@H](C)[C@@H](O[C@H]2C[C@@](C)(OC)[C@@H](O)[C@H](C)O2)[C@H](C)[C@@H](O[C@@H]2O[C@H](C)C[C@H](N(C)C)[C@H]2O)[C@](C)(O)C[C@@H](C)CN(C)[C@H](C)[C@@H](O)[C@]1(C)O [AZITHROMYCIN]",
    "measured_quantity": "inhibition at 50 µM",
    "observed": 84
  }
]

Field: next compound
# inhibition at 50 µM of CC/N=C1\O[C@H]2[C@H](O[C@@H]3[C@@H](C)[C@H](O[C@H]4C[C@@](C)(OC)[C@@H](O)[C@H](C)O4)[C@@H](C)C(=O)O[C@H](CC)[C@@](C)(O)[C@H](O)[C@@H](C)C(=O)[C@H](C)C[C@@]3(C)O)O[C@H](C)C[C@@H]2N1C = 86

src = ChEMBL document CHEMBL2157869
